Parameter inhibition: see the listing below.
- experimental.system: Mannose-6-phosphate isomerase (Homo sapiens)
- experiment.description: inhibitors of human PMI, primary screen, biochemical, fluorescence intensity, coupled assay (AID 1209);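 also: plate controls were DMSO vehicle for no effect and wells lacking substrate for full effect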
- test.parameters: purified PMI enzyme, at 20 µM, stronger effect = higher value
Out of some 190,000 compounds screened, about 810 (0.43%) were called active. For the sample, actives were picked, then their nearest neighbours and some compounds at random.

Sample records with inhibition:
CN(C)C(=O)c1nc2ccccc2s1 = 4.6% (inactive)
COc1cccc(/C=N/NC(=O)Cn2ccnc2C)c1 = 14.6% (inactive)
Cc1ccc(NC2=C/C(=N\S(=O)(=O)c3cccs3)c3ccccc3C2=O)c(C)c1 = 0.2% (inactive)
CC(=O)N(Cc1ccc(Br)cc1)c1cccc(C)c1C = 5.3% (inactive)
O=C(O[C@@H]1OC2COC(=O)c3cc(O)c(O)c(O)c3-c3c(cc(O)c(O)c3O)C(=O)O[C@@H]([C@H]1O)[C@@H]2O)c1cc(O)c(O)c(O)c1 = 49.1% (inactive)

[ask] Which value of inhibition has been reported for COc1ccc(N2C(=O)CN(Cc3cc(OC)c(OC)c(OC)c3)C2=S)cc1 in the records?
[reply] -2.4% (inactive)

[ask] Which inhibition reading was recorded for the compound Cc1cc(C)c(S(=O)(=O)/N=C2/C=C(Sc3ncn[nH]3)C(=O)c3ccccc32)cc1C ?
[reply] 98.1% (active)

[ask] Quick one: inhibition for Cc1ccc(S(=O)(=O)/N=C2/C=C(Sc3ncn[nH]3)C(=O)c3ccccc32)c(C)c1 ?
[reply] 101% (active)

[ask] Quick one: inhibition of Cc1ccccc1N=Cc1cccc(O)c1O ?
[reply] 74.1% (active)

[ask] Entry CCc1ccc(O)c(N=Cc2cccc(C)c2O)c1 has what inhibition?
[reply] 18.5% (inactive)

[ask] Name the reported inhibition value associated with the compound Cc1cn(C2OC(COC(=O)c3ccccc3)C(OC(=O)c3ccccc3)C2OC(=O)c2ccccc2)c(=O)[nH]c1=O (configuration not stated)
[reply] 3.7% (inactive)

[ask] Entry under review: C=CCN=c1scc(C)n1/N=C/c1ccc(O)c(O)c1 . Reported inhibition?
[reply] 49.2% (inactive)

###

- experimental.system: Mannose-6-phosphate isomerase (Homo sapiens)
- experiment.description: inhibitors of human PMI, primary screen, biochemical, fluorescence intensity, coupled assay (AID 1209);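 also: plate controls were DMSO vehicle for no effect and wells lacking substrate for full effect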
- test.parameters: purified PMI enzyme, at 20 µM
Screen size: about 190,000 compounds; about 810 (0.43%) were called active. Rule as the data show it: active = inhibition above about 50%; inactive = the rest. The list comes from a sample in which actives are over-represented; it also holds close analogues and randomly drawn compounds.
Entry note: the call must match one of active, inactive

Completed entries (count: 8):
COc1ccc(S(=O)(=O)NN=C2CCCCC2)cc1 = inactive
O=c1[nH]nc(CNc2ccc(Cl)cc2Cl)c2ccccc12 = inactive
O=C(/C=C/Sc1ncn[nH]1)c1ccc(Cl)cc1 = active
NC(=S)N/N=C\c1c2ccccc2cc2ccccc12 = inactive
O=C(/C=C/Sc1ccccc1)c1ccc(Cl)cc1 = inactive
O=C(NCc1ccco1)c1ccccc1-c1ccc(C(F)(F)F)cc1 = inactive
CCN(CC)CCn1c(=N)n(CC(O)c2ccc(OC)c(OC)c2)c2ccccc21 (centres undefined) = inactive
N#C/C(C(=O)N1CCCCC1)=C1/N=C(N)c2ccccc21 = inactive

# input for lookup
[ask] I would be grateful if you could indicate the recorded call for CC(=O)NC1=NN(C(C)=O)C(c2ccccc2)S1 (centres undefined) .
[reply] inactive
